B1: NELF-E aptamer (parent)
chain: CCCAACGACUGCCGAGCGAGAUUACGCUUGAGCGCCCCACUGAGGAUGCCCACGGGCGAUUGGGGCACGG

# Variants of: B1
# measurement-description: HiTS-RAP
# stated-conditions: with NELF-E (Drosophila)
pKd: −log10 of the molar value.
Values of pKd greater than or equal to 8 map to true; values below map to false.

- A4G U10G: true
- A5G A52G: true
- U10G G14A: true
- U10G G44A: false
- U10A A15G: true
- A5G C13G: true
- C13G A24G: true
- A19G G30A: true
- A19G C25G: true
- C25G: true
- U10A G26A: true
- A4G A43U: false

Measured values drawn from the RNAGym collection of RNA variant scans (doi:10.1038/nmeth.2970) for this set.
